System: UACC-62 melanoma
ASSAY_REMARKS: NCI tumour cell line growth inhibition, 48 h
MEASURE: TGI

-- ask # TGI lookup, item CC1(/C=C/CCSc2ccccc2)CC(=O)C2CC1C2(C)C (stereo unspecified)
-- reply > 60 µM

-- ask Repeat with CCCNC(=O)C(C)C1CCC2(C)C=CC(=O)C(C)=C2C1O (stereo unspecified)
-- reply > 100 µM

-- ask Repeat with O=C1NC(=O)C(N2C(=O)c3ccccc3C2=O)CC1O (stereo unspecified)
-- reply > 100 µM

-- ask Repeat with CC/C=C\C/C=C\C/C=C\CCCCCCCC(=O)OCC(O)CO (stereo unspecified)
-- reply > 100 µM

-- ask Repeat with CCOC(=O)C1C(=S)NC(=O)C1C#N (stereo unspecified)
-- reply > 100 µM

-- ask Repeat with CCC1(c2ccccc2)C(=O)N=C(c2ccccc2)N1CCc1ccccc1 (stereo unspecified)
-- reply > 100 µM

-- ask Repeat with CCOC(=O)C1C(c2ccc3c(c2)OCO3)c2c([nH][nH]c2=O)CC1(C)O (stereo unspecified)
-- reply > 100 µM

-- ask Repeat with Fc1ccc(/C=N/n2c(-c3ccc(F)c(Cl)c3)nn(CNc3ccccc3C(F)(F)F)c2=S)cc1
-- reply > 100 µM

-- ask Repeat with COc1ccc(-c2cc(Cc3cccs3)c(=O)[nH]n2)cc1
-- reply > 100 µM

-- ask Repeat with Nc1ccn(C2C=C(CO)C(O)C2O)c(=O)c1 (stereo unspecified)
-- reply > 625 µM

-- ask Repeat with C=C(Br)CNC(=O)Nc1ccc(Cl)c(Cl)c1
-- reply 49 µM

* * *

System: NCI-H23 lung
ASSAY_REMARKS: NCI tumour cell line growth inhibition, 48 h; in the data active means GI50 below about 0.43 µM; inactive means the rest
Pick from 1 (yes) (active), 0 (no) (inactive) when you respond.

# COMPOUND, LABEL
records = [
    ("CN=c1ccc2nc3ccc(N)cc3sc-2c1", "0 (no)"),
    ("COc1ccc2cc1Oc1ccc(cc1)C[C@H]1c3c(cc4c(c3Oc3cc5c(cc3OC)CCN(C)[C@@H]5C2)OCO4)CCN1C", "0 (no)"),
    ("CCc1ccc2c(c1)N(CCO)C1=C(C(=O)OC1)C2c1cccc(Br)c1 (centres undefined)", "0 (no)"),
    ("COc1cc2c3c(n(C)c(=O)c2cc1OC)-c1cc2c(cc1/C3=C\\CCCCN1C(=O)c3ccccc3C1=O)OCO2", "0 (no)"),
    ("N#Cc1c(N2CCOCC2)nc(=S)[nH]c1-c1ccco1", "0 (no)"),
]

-- ask Test call for this compound, please: O=C1c2cccnc2C(=O)c2c1c(C(=O)NCCCN1CCCCC1)c1ccccn21
-- reply 0 (no)

-- ask Repeat with CC(C)NCCCn1c(Sc2cc3c(cc2I)OCO3)nc2c(N)ncnc21
-- reply 1 (yes)

-- ask Repeat with CCN(CC)c1ccc2cc(C(=O)Nc3ccc4[nH]c(C(=O)N5C[C@@H](CCl)c6c5cc(OC(=O)Nc5ccccc5)c5[nH]cc(C)c65)cc4c3)oc2c1
-- reply 0 (no)

-- ask Repeat with c1cnn2ncc(-c3ccnc(NCCCN4CCOCC4)n3)c2c1
-- reply 0 (no)

* * *

Tested on: SR leukemia
ASSAY_REMARKS: NCI tumour cell line growth inhibition, 48 h
MEASURE: TGI

# COMPOUND, DATA_VALUE
measured = [
    ("CC1(O)C=CC(=O)C=C1", "61.2 µM"),
]

-- ask # TGI lookup, item CC1=NC(=Cc2cccc(Cl)c2)C(=O)N1n1c(-c2ccccc2)nc2ccccc2c1=O
-- reply 63.5 µM

-- ask Repeat with O=C(O)c1cc2c(ncc3c(=O)n(-c4ccccc4)[nH]c32)s1
-- reply > 100 µM

Value source: PubChem BioAssay (NCI)
